Tested on: A549/ATCC NSCLC
method: NCI-60 one-dose screen, 48 h (100 = growth as untreated, 0 = no growth, -100 = all killed)
condition.context: 10 µM unless noted
The panel holds about 83,000 compounds, 20% with a hit somewhere; the sample as a whole holds those more often.
Labelling field: enter yes if recorded growth is less than 50%. Enter no if it equals or exceeds that cut-off.

Below, 5 compounds whose answers are already recorded.
[[record]]
compound = "CC(=O)Oc1ccc(Cl)cc1CN(C(C)=O)C1CCCCC1"
target_system = "A549/ATCC NSCLC"
category = "no"

[[record]]
compound = "COc1ccccc1Nc1nc(-c2cc3cccc(C(F)(F)F)c3oc2=O)cs1"
target_system = "A549/ATCC NSCLC"
category = "yes"

[[record]]
compound = "COc1ccc(-c2nnc(SCC(=O)c3ccc(Cl)cc3)o2)cc1"
target_system = "A549/ATCC NSCLC"
category = "no"

[[record]]
compound = "CON1C(=O)CC[C@]2(C)[C@H]3CC[C@@H]4C([C@@]5(C)CCC(=O)O5)CC[C@@]4(C)[C@]3(C)CC[C@H]2C1(C)C (stereo not given in full)"
target_system = "A549/ATCC NSCLC"
category = "no"

[[record]]
compound = "CC(=O)Nc1ccc(S(=O)(=O)Nc2cccc(-c3nc(-c4ccc(NC(=O)c5cccnc5)cc4Cl)no3)c2)cc1"
target_system = "A549/ATCC NSCLC"
category = "yes"


Query block: Input `O=C(CCN1C(=O)/C(=C/c2ccc(Cl)cc2)SC1=S)NCCCN1CCOCC1` ; condition: growth strictly below 50%. Does it hold?
Result block: no

Query block: Input `CC(C)(CCCN=C(N)Nc1ccc(Cl)cc1)c1ccc(F)cc1` ; condition: growth strictly below 50%. Does it hold?
Result block: no

Query block: Input `COc1cc(C(=O)/C=C/c2cccnc2Nc2ccc(Cl)cc2)cc(OC)c1OC` ; condition: growth strictly below 50%. Does it hold?
Result block: yes

Query block: Input `CCOc1nc(-c2ccccc2)cc2c(O)c(C(=O)O)[nH]c(=O)c12` ; condition: growth strictly below 50%. Does it hold?
Result block: no

* * *

System: SK-MEL-28 melanoma
method: NCI-60 one-dose screen, 48 h (100 = growth as untreated, 0 = no growth, -100 = all killed)
condition.context: 10 µM unless noted
This is part of a sample that, as a whole, favours compounds with a hit. Of some 83,000 tested, about 20% had one in any assay.
Readings of growth for the listed compounds
Numeric only. Scale: %

Sample answers from the record:
[[record]]
compound = "O=C(/C=C/c1cc(CN2CCOCC2)c(O)c2ncccc12)c1cc(CN2CCOCC2)c(O)c2ncccc12"
measured_endpoint = "growth"
scale_unit = "%"
result_number = 37

[[record]]
compound = "CSc1nc(Nc2cccc(NC(=O)/C(C#N)=C/c3c(Cl)cccc3Cl)c2)c(C#N)c(-c2cccc([N+](=O)[O-])c2)n1"
measured_endpoint = "growth"
scale_unit = "%"
result_number = 76.7

[[record]]
compound = "COc1cc(C(=O)Oc2ccccc2OC(=O)c2cc(OC)c(OC)c(OC)c2)cc(OC)c1OC"
measured_endpoint = "growth"
scale_unit = "%"
result_number = 120

[[record]]
compound = "CC(O)CN(CC(C)O)c1ccc2c(c1)Cc1cc([N+](=O)[O-])ccc1-2 (stereo not given)"
measured_endpoint = "growth"
scale_unit = "%"
result_number = 109

[[record]]
compound = "CN(Cc1cc(Cl)cc(Cl)c1O)Cc1cc(Cl)cc(Cl)c1O"
measured_endpoint = "growth"
scale_unit = "%"
result_number = 86.9

[[record]]
compound = "COc1ccc2nc(NC(=O)CSc3nnc4n3S(=O)(=O)c3ccccc3N4c3ccccc3)sc2c1"
measured_endpoint = "growth"
scale_unit = "%"
result_number = 109

[[record]]
compound = "COc1cccc(-c2nc3sccn3c2-c2ccnc(NCCNS(=O)(=O)c3ccccc3)c2)c1"
measured_endpoint = "growth"
scale_unit = "%"
result_number = 50

[[record]]
compound = "CC(C)(C)CC(C)(C)c1ccc(OCCOCC[N+](C)(C)Cc2ccccc2)cc1"
measured_endpoint = "growth"
scale_unit = "%"
result_number = -67

[[record]]
compound = "C=C1c2nc3ccccc3n2C=C(c2ccc(Cl)cc2)N1Cc1ccc(OC)cc1"
measured_endpoint = "growth"
scale_unit = "%"
result_number = 88.9

[[record]]
compound = "Cn1c(O)c(N=NC(=O)c2cc(-c3ccccc3)on2)c2ccccc21"
measured_endpoint = "growth"
scale_unit = "%"
result_number = 107


So for `CN(C)CCN1C(=O)c2cccc3c(N)ccc(c23)C1=O` , the logged growth turned out to be 71.2

So for `COc1cc2c(cc1-c1c(C)noc1C)ncc1nc(C3CCC(F)(F)CC3)n([C@H](C)COC(F)F)c12` , the logged growth turned out to be 54.4

So for `CN1CCN=C1c1ccc(NC(=O)c2ccc(C(=O)Nc3ccc(C4=NCCN4C)cc3)cc2)cc1` , the logged growth turned out to be 110

So for `FC(F)(F)c1nc2c(NCc3ccc(-c4ccccc4)cc3)cccc2[nH]1` , the logged growth turned out to be 92.1

So for O=C1Nc2ccc(Br)cc2C12Oc1ccccc1C1CC(c3ccc(F)cc3)=NN12 (stereo not given) , the logged growth turned out to be 105

So for CON1C(=O)CC[C@]2(C)[C@H]3CC[C@@H]4C([C@@]5(C)CCC(=O)O5)CC[C@@]4(C)[C@]3(C)CC[C@H]2C1(C)C (stereo not given in full) , the logged growth turned out to be 107

So for `COC(=O)c1ccc(Cn2cnc3c(N)ncnc32)cc1` , the logged growth turned out to be 104

So for `Nc1ccc(-c2cc3c(NCc4ccccc4)ncnc3s2)cc1` , the logged growth turned out to be 92.3

So for `COc1ccc(N=Nc2nccs2)c(O)c1` , the logged growth turned out to be 81.4

So for `O=C(Nc1ccc(Cl)cc1)c1cc2cc(F)ccc2cc1O` , the logged growth turned out to be 12.1

* * *

System: SF-539 CNS
method: NCI-60 one-dose screen, 48 h (100 = growth as untreated, 0 = no growth, -100 = all killed)
condition.context: 10 µM unless noted
The panel holds about 83,000 compounds, 20% with a hit somewhere; the sample as a whole holds those more often. Calls of active or inactive are those of the source. How the source made its calls: active means growth percent below 10; inactive means the rest.
measured.endpoint: growth

[[record]]
compound = "COc1ccc(-c2cc(-c3ccc(Nc4ccnc5cc(Cl)ccc45)cc3)nc(N3CCOCC3)n2)cc1"
measured_endpoint = "growth"
result = "-41.1% (active)"

[[record]]
compound = "CCC([N+](=O)[O-])S(=O)(=O)c1ccc(C)cc1 (centres undefined)"
measured_endpoint = "growth"
result = "94.5% (inactive)"

[[record]]
compound = "CC1(C)CC[C@]2(C(=O)Nc3ccccn3)CC[C@]3(C)C(=CC[C@@H]4[C@@]5(C)C/C(=C/c6cccnc6)C(=O)C(C)(C)[C@@H]5CC[C@]43C)[C@H]2C1"
measured_endpoint = "growth"
result = "51.6% (inactive)"


So for `Cc1cc(Nc2ccc(C)c(Cl)c2)n2nc(C(F)(F)F)nc2n1` , the logged growth turned out to be 33.1% (inactive)

* * *

Tested on: HOP-92 NSCLC
method: NCI-60 one-dose screen, 48 h
condition.context: 10 µM unless noted
Compounds without any hit were thinned out: in the full panel of roughly 83,000, 20% have a hit. The source made the active and inactive calls. The calls were made as follows: active = growth percent below 10; inactive = the rest.
Please answer using one outcome listed in active, inactive

Below, 5 compounds whose answers are already recorded.
[[record]]
compound = "O=c1cc(CSc2nnc(SCc3cc(=O)oc4c3ccc3ccccc34)o2)c2ccc3ccccc3c2o1"
category = "inactive"

[[record]]
compound = "O=C(CCN1C(=O)/C(=C/c2ccc(Cl)cc2)SC1=S)NCCCN1CCOCC1"
category = "inactive"

[[record]]
compound = "C=C1C(=O)O[C@H]2[C@H]1CC/C(COC(=O)NCc1ccc(OC)c(OC)c1)=C\\CC[C@@]1(C)O[C@@H]21"
category = "inactive"

[[record]]
compound = "Cc1cc(C)nc(SC2=C(Nc3cccc(Cl)c3C)C(=O)N(Cc3ccccc3)C2=O)n1"
category = "inactive"

[[record]]
compound = "C#CCOc1ccc2ncnc(NCc3cccc(NC(=O)CCl)c3)c2c1"
category = "inactive"


Query block: Hi, sorry to bother you, what did the test record for `COc1ccc(-c2nc3ccc(-c4nc5ccc(N6CCN(c7ccc(F)cc7)CC6)cc5[nH]4)cc3[nH]2)cc1OC` ?
Result block: inactive

Query block: Hi, sorry to bother you, what did the test record for `COc1cc2nc(N3CCCC3)nc(NCC3CCCCC3)c2cc1OC` ?
Result block: active

Query block: Hi, sorry to bother you, what did the test record for `CC(=O)c1cc(C(=O)c2ccc3c(c2)Sc2ccccc2N3)n2ccccc12` ?
Result block: inactive

Query block: Hi, sorry to bother you, what did the test record for `Cc1nn(-c2ccc(F)cc2)c2ncnc(Nc3ccc(NC(=O)Nc4ccc(Cl)c(C(F)(F)F)c4)cc3)c12` ?
Result block: active

Query block: Hi, sorry to bother you, what did the test record for `N#Cc1cnn(-c2nc3c(Cl)cccc3s2)c1N` ?
Result block: inactive

Query block: Hi, sorry to bother you, what did the test record for `COc1cc2c(cc1-c1c(C)noc1C)ncc1nc(C3CCCC3)n([C@H](C)COC(F)F)c12` ?
Result block: inactive
